# measured-target: Proteasome Macropain subunit MB1 (Homo sapiens, UniProt P28074)
# Sequence (P28074 whole entry): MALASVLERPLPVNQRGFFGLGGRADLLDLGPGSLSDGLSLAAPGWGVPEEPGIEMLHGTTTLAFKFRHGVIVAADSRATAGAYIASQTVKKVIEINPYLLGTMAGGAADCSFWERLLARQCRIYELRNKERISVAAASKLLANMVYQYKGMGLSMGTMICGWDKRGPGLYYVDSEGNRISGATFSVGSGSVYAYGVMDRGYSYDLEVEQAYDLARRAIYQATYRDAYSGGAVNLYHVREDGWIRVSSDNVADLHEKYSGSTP
# test-details: Inhibition of human 20S proteasome beta 5
endpoint-label: IC50

For orientation, consider the following solved cases.
CCCc1ccc(OCC(=O)N(Cc2nc(-c3ccc4ccccc4n3)no2)C(C)C)cc1 ... 0.88 µM
CC(C)N(Cc1cccc(-c2ccco2)c1)C(=O)c1ccc2ccccc2n1 ... 61.6 µM
CCCc1ccc(OCC(=O)N(Cc2nc(-c3ccc4ccccc4c3)no2)C(C)C)cc1 ... 4.31 µM
CCCc1ccc(OCC(=O)N(Cc2cccc(-c3cncnc3)c2)C(C)C)cc1 ... 2.27 µM
CC(C)N(Cc1cccc(-c2cccnc2)c1)C(=O)c1cc2ccccc2o1 ... 20.2 µM
CC(C)N(Cc1cccc(-c2ccco2)c1)C(=O)c1cc2ccccc2o1 ... 47.3 µM
CCCc1ccc(OCC(=O)N(Cc2cccc(-c3cccs3)c2)C(C)C)cc1 ... 9.45 µM
CCCc1ccc(OCC(=O)N(Cc2nc(-c3ccco3)no2)C(C)C)cc1 ... 0.12 µM

// query Param readout= IC50; system= Proteasome Macropain subunit MB1 (Homo sapiens, UniProt P28074); entry= CCCc1ccc(OCC(=O)N(Cc2cccc(-c3ccco3)c2)C(C)C)cc1 ; returns value.
// result 10.7 µM

// query Test system Proteasome Macropain subunit MB1 (Homo sapiens, UniProt P28074); read-out IC50; what value for CC(C)N(Cc1nc(-c2cccnc2)no1)C(=O)COc1ccc(Oc2ccccc2)cc1 ?
// result 1.61 µM

// query Missing value: IC50, Proteasome Macropain subunit MB1 (Homo sapiens, UniProt P28074), entry CC(C)N(Cc1nc(-c2ccco2)no1)C(=O)c1cc2ccccc2o1 . Fill in?
// result 0.61 µM

// query Tell me reported IC50 for CC(C)N(Cc1nc(-c2ccco2)no1)C(=O)COc1ccc(Oc2ccccc2)cc1 , tested with Proteasome Macropain subunit MB1 (Homo sapiens, UniProt P28074).
// result 14.7 µM

----------
# measured-target: Proteasome Macropain subunit MB1 (Homo sapiens)
# test-details: Inhibition of human 20S proteasome beta 5
IC50 by entry:

For orientation, consider the following solved cases.
CC(C)N(Cc1nc(-c2cccs2)no1)C(=O)c1cc2ccccc2o1 ... 390 nM
CCCc1ccc(OCC(=O)N(Cc2nc(-c3cccs3)no2)C(C)C)cc1 ... 180 nM
CCCc1ccc(OCC(=O)N(Cc2ccc(-c3cccnc3)cc2)C(C)C)cc1 ... 1140 nM
CC(C)N(Cc1ccc(-c2cccnc2)cc1)C(=O)COc1ccc(Oc2ccccc2)cc1 ... 1370 nM

// query Query for Proteasome Macropain subunit MB1 (Homo sapiens): what IC50 does the record show for CC(C)N(Cc1cccc(-c2cccs2)c1)C(=O)c1ccc2ccccc2n1 ?
// result 3360 nM

// query Missing value: IC50, Proteasome Macropain subunit MB1 (Homo sapiens), entry CCCc1ccc(OCC(=O)N(Cc2cccc(-c3cccnc3)c2)C(C)C)cc1 . Fill in?
// result 1080 nM

// query API: value(readout= IC50, system= Proteasome Macropain subunit MB1 (Homo sapiens), query= CCCc1ccc(OCC(=O)N(Cc2ccc(-c3cccs3)cc2)C(C)C)cc1 )
// result 33500 nM
